Test system: Pseudomonas aeruginosa
Assay: Extended time kill study, Example 34 (0 to 24 h)
Assay type: cell-based
Conditions: 4 × MIC, 4 h
Where a name gives a salt, the structure may show the parent alone.
Attribute: Viable counts, Pseudomonas aeruginosa time kill study

Molecule	Obs Value
CCCCCCCCCCCCOC(=O)C(C)N(C)C (centres unmarked) [Nex-05, hydrochloride]	<1 Log10 CFU/mL
CCCCCCCCCCCCOC(=O)C(C)NC.Cl (centres unmarked) [Nex-59]	<1 Log10 CFU/mL
CCCCCCCCCCCCOC(=O)C(C)NCCN(CC)CC.Cl (centres unmarked) [Nex-62]	<1 Log10 CFU/mL
CCCCCCCCCCCCOC(=O)C(C)NC(C)C.Cl (centres unmarked) [Nex-60]	<1 Log10 CFU/mL

The record that follows has no Viable counts, Pseudomonas aeruginosa time kill study shown yet.
Determine its reported Viable counts, Pseudomonas aeruginosa time kill study: CCCCCCCCCCCCOC(=O)C(C)NCCO.Cl (centres unmarked) [Nex-61]
<1 Log10 CFU/mL
